molecular target: PI4K2a (Homo sapiens, UniProt Q9BTU6); test: Lipid kinase screening (ADP-Glo), PI4K2a; format: biochemical
Sequence (Q9BTU6 whole entry): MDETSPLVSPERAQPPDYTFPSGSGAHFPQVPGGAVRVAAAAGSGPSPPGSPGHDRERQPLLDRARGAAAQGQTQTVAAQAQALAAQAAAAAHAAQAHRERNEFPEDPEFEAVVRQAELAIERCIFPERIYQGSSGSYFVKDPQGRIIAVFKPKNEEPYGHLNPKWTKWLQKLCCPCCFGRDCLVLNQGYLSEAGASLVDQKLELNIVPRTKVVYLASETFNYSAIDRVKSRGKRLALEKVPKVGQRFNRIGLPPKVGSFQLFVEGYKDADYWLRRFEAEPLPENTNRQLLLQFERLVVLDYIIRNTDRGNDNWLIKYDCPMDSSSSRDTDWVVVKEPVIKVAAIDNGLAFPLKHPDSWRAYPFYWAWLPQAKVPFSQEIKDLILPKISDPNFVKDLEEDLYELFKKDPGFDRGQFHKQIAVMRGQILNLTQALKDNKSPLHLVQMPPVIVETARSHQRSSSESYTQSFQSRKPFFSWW
# inhibition at 10 µM >= -10% gives YES, anything below gives NO

# compound, target, class.name
data = [
    ("CN(C)c1cc[n+](CCCCCCCCCCCC[n+]2ccc(N(C)C)cc2)cc1 [ICL-CCIC-0019]", "PI4K2a (Homo sapiens, UniProt Q9BTU6)", "NO"),
    ("CN(C)c1cc[n+](CCCCCCCCCCCCCC[n+]2ccc(N3CCNCC3)cc2)cc1 [CK146]", "PI4K2a (Homo sapiens, UniProt Q9BTU6)", "NO"),
    ("CN(C)c1cc[n+](CCCCCCCCCCCCCC[n+]2ccc(N3CCN(C(=O)CSC4CC(=O)N(CCC(=O)NCCCCCC(=O)NCCCCC(NC(=O)NC(CCC(=O)O)C(=O)O)C(=O)O)C4=O)CC3)cc2)cc1 (centres unmarked) [CK147]", "PI4K2a (Homo sapiens, UniProt Q9BTU6)", "YES"),
    ("CN(C)c1cc[n+](CCCCCCCCCCCCCC[n+]2ccc(N(C)C)cc2)cc1.[Br-].[Br-] [CK14, reference compound]", "PI4K2a (Homo sapiens, UniProt Q9BTU6)", "NO"),
]

Next up:
Input: State whether the measured inhibition at 10 µM reaches -10%, counting equality as reaching it, for CC(=O)NCCCCC(NC(=O)OC(C)(C)C)C(=O)N1CCN(c2cc[n+](CCCCCCCCCCCCCC[n+]3ccc(N(C)C)cc3)cc2)CC1 (centres unmarked) [CK145]
Output: NO
